target: D3R (Homo sapiens); experiment: D3R radioligand binding assay ([125I]IABN, HEK cells); set-up: expressed in transfected cells; details: (Ki for D2R)/(Ki for D3R); D3R versus D2R selectivity (fold)
Sequence (P35462 whole entry): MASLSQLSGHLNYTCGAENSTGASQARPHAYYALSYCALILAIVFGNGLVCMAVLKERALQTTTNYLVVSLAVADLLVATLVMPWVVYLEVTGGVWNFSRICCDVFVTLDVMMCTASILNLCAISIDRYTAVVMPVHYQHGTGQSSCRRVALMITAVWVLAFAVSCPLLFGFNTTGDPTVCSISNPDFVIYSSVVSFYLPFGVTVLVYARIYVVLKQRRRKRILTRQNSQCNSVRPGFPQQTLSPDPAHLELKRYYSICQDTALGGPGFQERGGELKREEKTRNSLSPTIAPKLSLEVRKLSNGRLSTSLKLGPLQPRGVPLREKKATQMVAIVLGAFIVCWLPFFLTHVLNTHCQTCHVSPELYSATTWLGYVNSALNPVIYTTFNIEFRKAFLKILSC
Listing of recorded D2R/D3R Ratio by entry.
Just the number, please.

Known D2R/D3R Ratio results, listed for orientation:
1. C=CCN1C[C@H](OC(=O)NCCCCCCCCc2cccs2)C[C@@H]1CNC(=O)c1cc(CCCF)cc(OC)c1OC [(R,R)-cis-2i] = 3.0
2. C=CCN1C[C@@H](OC(=O)NCCCCCCCCc2cccs2)C[C@@H]1CNC(=O)c1cc(CCCF)cc(OC)c1OC [(S,R)-trans-2i] = 0.6
3. C=CCN1C[C@H](OC(=O)NCCOCCOCCOC)C[C@H]1CNC(=O)c1cc(CCCF)cc(OC)c1OC [(R,S)-trans-2e] = 2.2

API: the following record is the query input.
Entry under review: C#CCOCCOCCNC(=O)O[C@@H]1C[C@@H](CNC(=O)c2cc(CCCF)cc(OC)c2OC)N(CC=C)C1 [(R,S)-trans-2g] . Reported D2R/D3R Ratio? 2.4

Recorded values, source paper PMC10779535.
